- testedTarget: Hemoglobin + feces sample (Homo sapiens, UniProt P68871+P69905)
- Sequence (P69905 2-142 limits assumed): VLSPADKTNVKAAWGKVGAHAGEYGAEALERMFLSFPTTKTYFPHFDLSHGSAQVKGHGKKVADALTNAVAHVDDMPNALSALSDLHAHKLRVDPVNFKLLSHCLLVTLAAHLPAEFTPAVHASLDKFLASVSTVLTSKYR
- Sequence (P68871 2-147 limits assumed): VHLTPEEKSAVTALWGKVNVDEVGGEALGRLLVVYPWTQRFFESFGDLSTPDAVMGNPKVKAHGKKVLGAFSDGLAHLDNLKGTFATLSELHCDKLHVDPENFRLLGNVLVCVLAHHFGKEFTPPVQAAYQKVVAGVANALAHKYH
- assayDetails: Hemoglobin stabilization effect in storage solution, hemoglobin coexisting with feces sample (residual ratio by immunological measurement)
- recordedConditions: 0.010 mol/L agent added; stored at 37° C. for 20 hours; pH 7.0 HEPES storage solution
So I've got a bunch of compounds here, and I need their Residual ratio, Hemoglobin + feces sample values.
Reply with just the number (in %).

input: Tell me reported Residual ratio, Hemoglobin + feces sample for O=C(O)CN(CCO)CC(=O)O [HIDA, N-(2-hydroxyethyl) iminodiacetic acid] , tested with Hemoglobin + feces sample (Homo sapiens, UniProt P68871+P69905).
output: 26.4

input: Tell me reported Residual ratio, Hemoglobin + feces sample for O=C(O)CN(CCN(CC(=O)O)CC(=O)O)CC(=O)O [EDTA, ethylenediamine-N,N,N′,N′-4 acetic acid] , tested with Hemoglobin + feces sample (Homo sapiens, UniProt P68871+P69905).
output: 35.8

input: Tell me reported Residual ratio, Hemoglobin + feces sample for O=C([O-])CC(NC(C(=O)[O-])C(O)C(=O)[O-])C(=O)[O-].[Na+].[Na+].[Na+].[Na+] (stereo not shown) [HIDS] , tested with Hemoglobin + feces sample (Homo sapiens, UniProt P68871+P69905).
output: 39.2

input: Tell me reported Residual ratio, Hemoglobin + feces sample for O=C(O)CNCC(=O)O [IDA, iminodiacetic acid] , tested with Hemoglobin + feces sample (Homo sapiens, UniProt P68871+P69905).
output: 27.3
